assay: inhibitors of E-selectin induction by TNFa, primary screen, imaging, HUVEC, immunofluorescence, MLSMR starter and 10KST1 sets (AID 487); conditions: HUVEC TNFalpha-induced E-selectin immunofluorescence imaging, at 2 µM; measured here: cell number, toxicity;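 also: 100% = median nuclei count of all wells on the same plate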

| COMPOUND | nuclei count, % |
| --- | --- |
| COc1cccc(-c2nc(CSCC(=O)N3CCc4ccccc43)c(C)o2)c1 | 108 |
| Cc1cc(C)c(NC(=O)CSc2nnc(-c3ccncc3)n2Cc2ccco2)c(C)c1 | 113 |
| O=C(NCc1ccco1)c1cccn2c(=O)c3sccc3nc12 | 101 |
| O=C(NC1CCCC1)c1ccc2nc[nH]c2c1 | 114 |
| O=C(C1=C(O)C(=O)N(CCCN2CCOCC2)C1c1ccccn1)c1cc2ccccc2o1 (stereo unspecified) | 95.5 |
| CCn1c(SCC(=O)c2ccc(F)cc2)nnc1-c1ccoc1C | 103 |
| CCCN1CCN(CCCNC(=O)C2CCCN(c3nc4ccc(OCC)cc4s3)C2)CC1 (stereo unspecified) | 119 |
| CC(O)CNc1nc2c(c(=O)n(C)c(=O)n2C)n1CCc1ccccc1 (stereo unspecified) | 180 |
| CC(=O)Nc1c(C(=O)C2CC2)oc2ccccc12 | 117 |
| COc1cc2c(cc1OC)CN(CC(=O)Nc1cccc(C)c1)CC2 | 102 |
| COC(=O)c1cc(OC)c(OC)cc1NC(=O)c1ccc(Br)o1 | 103 |
| O=C(Nc1ccccc1)C1=C(O)CC(c2ccoc2)CC1=Nc1ccccc1 (stereo unspecified) | 121 |
| CC1Cc2nc(SCC(=O)Nc3ccc4c(c3)OCO4)n(-c3ccc(F)cc3)c(=O)c2S1 (stereo unspecified) | 107 |
| COC(=O)C1(C(F)(F)F)N=C2Sc3ccccc3N2C(N2CCOCC2)=N1 (stereo unspecified) | 107 |
| CC(=O)N(C(C)=O)c1ncc2c([nH]c3ccccc32)c1C#N | 117 |
| C=CCOC(=O)C1=C(C)OC(N)=C(C#N)C1c1ccc2c(c1)OCO2 (stereo unspecified) | 136 |
| Cc1cccc(OCCCC(=O)O)c1 | 116 |
| CCCn1c(C)nc2c(c1=O)c1nc3ccccc3nc1n2CCc1ccccc1 | 222 |
| CS(=O)(=O)N(Cc1ccccc1)c1ccc(C(=O)N2CCOCC2)cc1 | 96.9 |
| COc1ccccc1N1C(=O)CCC1(C#N)c1ccccc1 (stereo unspecified) | 72.2 |
| O=S(=O)(c1ccccc1)N1CCN(S(=O)(=O)c2ccccc2)C1 | 96.4 |
| CN(C)S(=O)(=O)c1ccc(Oc2ccc(S(=O)(=O)N(C)C)cc2)cc1 | 80.6 |
| CC1=C(C(=O)N2CCCCC2)C(c2cccs2)C2=C(CCCC2=O)N1 (stereo unspecified) | 92.4 |
| c1ccc2c(c1)c1c3n2CCNC3CCC1 (stereo unspecified) | 102 |
| O=C(NCc1ccc(F)cc1)C1CCN(C(=O)NCc2ccccc2)CC1 | 106 |
| CCN1CCN(C(CNC(=O)c2ccc3c(c2)OCO3)c2cccnc2)CC1 (stereo unspecified) | 109 |
| CC1CCN(S(=O)(=O)c2cccc(C(=O)Nc3ccccn3)c2)CC1 | 90.4 |
| CC(C)c1nc2n[nH]c(N)c2c2c1CCCC2 | 148 |
| Cc1cc(OCC(=O)Nn2cnnc2)ccc1Br | 119 |
| Cc1nc(N2CCc3ccccc32)[nH]c(=O)c1CCC(C)C | 135 |
| COC(=O)CC(C(=O)Nc1cc(C(=O)OC)cc(C(=O)OC)c1)N1CCN(C)CC1 (stereo unspecified) | 107 |
| CCOC(=O)c1c(C)[nH]c(C(=O)CSc2nc3ccccc3o2)c1C | 94.5 |
| CCCN(CC1CC1)C(=O)Nc1ccccc1C | 103 |
| CN(C)c1cccc2c(S(=O)(=O)N3CCOCC3)cccc12 | 157 |
| CCc1ccc(C2CC(c3ccccc3)n3ncnc3N2)cc1 (stereo unspecified) | 70.6 |
| Cc1c(C)n(C(=O)CSc2nccn2C)c2ccccc12 | 106 |
| CC1(C)Cc2c(C#N)c(OCC(=O)c3ccccc3)nc(-c3ccoc3)c2CO1 | 98.1 |
| COc1ccc2nc(/N=C(\N)NC(=O)C(C)(C)C)nc(C)c2c1 | 184 |
| CS(=O)(=O)c1ccc2nc(NC(NC(=O)c3ccco3)(C(F)(F)F)C(F)(F)F)sc2c1 | 162 |
| Cc1ccc(Cl)cc1N1CCN(C(=O)C2CCCN(S(=O)(=O)c3cnc[nH]3)C2)CC1 (stereo unspecified) | 126 |
| COC(=O)CSCC(=O)Nc1cc2c(cc1C(C)=O)OCO2 | 76.4 |
| CN(C)C(=O)N1CCCC(C(=O)NCc2ccccc2)C1 (stereo unspecified) | 112 |
| Cc1ccc(-n2ncc3c(NCCCN4CCCC4=O)ncnc32)c(C)c1 | 134 |
| CCn1c(SCC(=O)NCc2ccco2)nnc1-c1ccc(N)cc1 | 189 |
| CNC(=O)c1ccsc1NC(=O)CN1C(=O)CCC1=O | 113 |
| Cc1nc2sc(C(c3ccc(Br)cc3)N3CC(C)OC(C)C3)c(O)n2n1 (stereo unspecified) | 114 |
